IC50 data for UniProt P05177 follow.

CCCCC1=NC2(CCCC2)C(=O)N1Cc1ccc(-c2ccccc2S(=O)(=O)Nc2noc(C)c2Cl)c(COCC)c1 > 100 µM

# input for lookup
What value of IC50 on UniProt P05177 does "[2H]C([2H])(c1ccc(-c2ccccc2S(=O)(=O)Nc2noc(C)c2Cl)c(COCC)c1)N1C(=O)C2(CCCC2)N=C1CCCC" have? > 100 µM

====

# PROCEDURE SUMMARY: Liver microsomal metabolism stability assay (human)
# Type: in vitro ADME
# REPORTED CONDITIONS: human liver microsomes 0.5 mg/mL, compound 1 µM, NADPH/UDPGA; read-out: Human t1/2
READOUT NAME: half-life at 1 µM

CCCCC1=NC2(CCCC2)C(=O)N1Cc1ccc(-c2ccccc2S(=O)(=O)Nc2noc(C)c2Cl)c(COCC)c1 36.5 min

Proceed to the following item.
What does the record list as half-life at 1 µM for "[2H]C([2H])(c1ccc(-c2ccccc2S(=O)(=O)Nc2noc(C)c2Cl)c(COCC)c1)N1C(=O)C2(CCCC2)N=C1CCCC" ? 38.5 min

====

# PROCEDURE SUMMARY: Liver microsomal metabolism stability assay (rat)
# Format: in vitro ADME
# REPORTED CONDITIONS: rat liver microsomes 0.5 mg/mL, compound 1 µM, NADPH/UDPGA; read-out: Rat t1/2
# half-life at 1 µM per entry
Entry rule: numbers only, all in min.

CCCCC1=NC2(CCCC2)C(=O)N1Cc1ccc(-c2ccccc2S(=O)(=O)Nc2noc(C)c2Cl)c(COCC)c1 29.9

// next entry
Look up half-life at 1 µM for this compound: "[2H]C([2H])(c1ccc(-c2ccccc2S(=O)(=O)Nc2noc(C)c2Cl)c(COCC)c1)N1C(=O)C2(CCCC2)N=C1CCCC" 26.3

====

# TEST SYSTEM: CYP450 3A4-T (Homo sapiens)
# Construct: Human liver microsome incubation system was used; from tissue; host or cells: human liver microsomes
# Sequence (P08684 whole entry): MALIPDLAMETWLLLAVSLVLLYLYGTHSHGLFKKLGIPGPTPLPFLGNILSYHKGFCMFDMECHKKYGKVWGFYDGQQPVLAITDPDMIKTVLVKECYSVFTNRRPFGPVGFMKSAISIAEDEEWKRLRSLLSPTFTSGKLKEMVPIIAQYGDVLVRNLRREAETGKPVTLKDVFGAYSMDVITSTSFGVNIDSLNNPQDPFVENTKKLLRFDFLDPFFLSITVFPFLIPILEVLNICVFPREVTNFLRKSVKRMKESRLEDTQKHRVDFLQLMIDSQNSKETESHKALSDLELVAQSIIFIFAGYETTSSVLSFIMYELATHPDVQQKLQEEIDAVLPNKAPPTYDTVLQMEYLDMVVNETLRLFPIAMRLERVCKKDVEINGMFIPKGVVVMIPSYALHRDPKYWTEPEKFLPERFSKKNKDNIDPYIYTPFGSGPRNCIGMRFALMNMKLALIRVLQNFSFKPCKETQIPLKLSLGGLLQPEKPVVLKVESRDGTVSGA
# PROCEDURE SUMMARY: CYP enzyme single-point inhibition assay, 3A4-T
# Type: in vitro ADME
# REPORTED CONDITIONS: human liver microsomes, single-point method
READOUT NAME: IC50

COMPOUND	IC50
CCCCC1=NC2(CCCC2)C(=O)N1Cc1ccc(-c2ccccc2S(=O)(=O)Nc2noc(C)c2Cl)c(COCC)c1 [Example 8]	> 100 µM

Continue with the next compound.
Any idea what its IC50 is? The compound is [2H]C([2H])(c1ccc(-c2ccccc2S(=O)(=O)Nc2noc(C)c2Cl)c(COCC)c1)N1C(=O)C2(CCCC2)N=C1CCCC [Example 2] > 100 µM

====

# TEST SYSTEM: AT1 receptors (Homo sapiens, UniProt P30556)
# PROCEDURE SUMMARY: effect on calcium current in cells stably expressing AT1 receptors (HEK293-AT1, FLIPR, antagonist)
# REPORTED CONDITIONS: 11 concentration points 10 uM to 0.17 nM
READOUT NAME: pIC50
Field pIC50 (float): negative decimal logarithm of the concentration in molar.

COMPOUND	NUMERIC READOUT
CCCCC1=NC2(CCCC2)C(=O)N1Cc1ccc(-c2ccccc2S(=O)(=O)Nc2noc(C)c2Cl)c(COCC)c1 [Example 8]	8.49

Would you kindly share the measured pIC50 for [2H]C([2H])(c1ccc(-c2ccccc2S(=O)(=O)Nc2noc(C)c2Cl)c(COCC)c1)N1C(=O)C2(CCCC2)N=C1CCCC [Example 2] ? 8.21

====

Form: system (CYP450 2C19 (Homo sapiens, UniProt P33261)), quantity (pIC50), values below.
pIC50: −log10 of the molar value.

COMPOUND	TEST SYSTEM	pIC50
CCCCC1=NC2(CCCC2)C(=O)N1Cc1ccc(-c2ccccc2S(=O)(=O)Nc2noc(C)c2Cl)c(COCC)c1 [Example 8]	CYP450 2C19 (Homo sapiens, UniProt P33261)	< 4.00

Next compound, pIC50 to be filled in.
For [2H]C([2H])(c1ccc(-c2ccccc2S(=O)(=O)Nc2noc(C)c2Cl)c(COCC)c1)N1C(=O)C2(CCCC2)N=C1CCCC [Example 2] , what is its reported pIC50? < 4.00

====

# TEST SYSTEM: CYP450 3A4-M (Homo sapiens, UniProt P08684)
# Sequence (P08684 whole entry): as above
READOUT NAME: IC50
Note: a bare number is incomplete; add the unit.

CCCCC1=NC2(CCCC2)C(=O)N1Cc1ccc(-c2ccccc2S(=O)(=O)Nc2noc(C)c2Cl)c(COCC)c1 24.9 µM

Next, consider the following compound.
What is its IC50 for CYP450 3A4-M (Homo sapiens, UniProt P08684)? Entry: "[2H]C([2H])(c1ccc(-c2ccccc2S(=O)(=O)Nc2noc(C)c2Cl)c(COCC)c1)N1C(=O)C2(CCCC2)N=C1CCCC" 14.7 µM

====

# PROCEDURE SUMMARY: Liver microsomal metabolism stability assay (dog)
# Format: in vitro ADME
# REPORTED CONDITIONS: dog liver microsomes 0.5 mg/mL, compound 1 µM, NADPH/UDPGA; read-out: Dog t1/2
Listed here: items and their measured half-life at 1 µM.
Write down the numeric answer in min and omit the unit.

CCCCC1=NC2(CCCC2)C(=O)N1Cc1ccc(-c2ccccc2S(=O)(=O)Nc2noc(C)c2Cl)c(COCC)c1 28.5

Now let's try a different one.
Field request: half-life at 1 µM | item: "[2H]C([2H])(c1ccc(-c2ccccc2S(=O)(=O)Nc2noc(C)c2Cl)c(COCC)c1)N1C(=O)C2(CCCC2)N=C1CCCC" 29.9
